This collection of values is drawn from patent US8415351B2.

- Test system: genotype 1a-H77 subgenomic replicon cell line
- measurementProtocol: microbe, parasite or virus in culture
- Format: cell-based, HCV
- conditionsUsed: Hepatitis C virus, read-out: EC50 1a
pEC50: −log10 of the molar value.
measurementKind: pEC50

compound: COc1c(C(=O)Nc2ccc(N)cc2)cc(N2CCC(=O)NC2=O)cc1C(C)(C)C [IA-L3-1.107]
result: < 6.00
//
compound: COCC(C)(C)c1cc(-n2ccc(=O)[nH]c2=O)cc(-c2ccc3cc(NS(C)(=O)=O)ccc3c2)c1OC [IB-L0-2.66]
result: 6.00 to 7.00
//
compound: COc1c(/C=C/c2ccc(NS(C)(=O)=O)cc2-c2ncco2)cc(-n2ccc(=O)[nH]c2=O)cc1C(C)(C)C [IB-L1-1.26]
result: 7.00 to 8.00
//
compound: COc1ccc(CN(c2ccc(NC(=O)c3cc(N4CCC(=O)NC4=O)cc(C(C)(C)C)c3OC)cc2)S(C)(=O)=O)cc1 [IA-L3-1.67]
result: < 6.00
//
compound: COc1c(NC(=O)c2ccccc2)cc(N2CCC(=O)NC2=O)cc1C(C)(C)C [IA-L4-1.8]
result: < 6.00
//
compound: COc1c(/C=C/c2ccc(N(C(C)=O)S(C)(=O)=O)cc2)cc(N2CCC(=O)NC2=O)cc1C(C)(C)C [IA-L1-1.11]
result: > 8.00
//
compound: CN(c1ccc(NC(=O)c2cc(N3CCC(=O)NC3=O)cc(C(C)(C)C)c2O)cc1)S(C)(=O)=O [IA-L3-1.4]
result: < 6.00

----------
- Tested on: genotype 1a-H77 subgenomic replicon cell line
- measurementProtocol: microbe, parasite or virus in culture
- Type: cell-based, HCV
- conditionsUsed: Hepatitis C virus, read-out: EC50 1a
pEC50: −log10 of the molar value.
// reported pEC50 for each item listed
measurementKind: pEC50

compound: COc1c(/C=C/c2cc(F)c(NS(C)(=O)=O)cc2C)cc(-n2ccc(=O)[nH]c2=O)cc1C(C)(C)C
result: > 8.00
//
compound: CCc1cc(NS(C)(=O)=O)ccc1C#Cc1cc(N2CCC(=O)NC2=O)cc(C(C)(C)C)c1OC
result: > 8.00
//
compound: COc1c(-c2ccc3c(c2)CCC3NNS(C)(=O)=O)cc(-n2ccc(=O)[nH]c2=O)cc1C(C)(C)C (centres unmarked)
result: 6.00 to 7.00
//
compound: COc1c(COc2ccc(NS(C)(=O)=O)cc2)cc(N2CCC(=O)NC2=O)cc1C(C)(C)C
result: 6.00 to 7.00
//
compound: COc1c(-c2ccccc2)cc(-n2ccc(=O)[nH]c2=O)cc1-c1ccc2cc(NS(C)(=O)=O)ccc2c1
result: 6.00 to 7.00
//
compound: COc1c(/C=C/c2ccc(NS(C)(=O)=O)cc2C=O)cc(-n2ccc(=O)[nH]c2=O)cc1C(C)(C)C
result: > 8.00
//
compound: COc1c(-c2ccc3c(c2)CC=C3CNS(C)(=O)=O)cc(-n2ccc(=O)[nH]c2=O)cc1-c1cccs1
result: 6.00 to 7.00
//
compound: COc1c(/C=C/c2ccc(NS(C)(=O)=O)cc2)cc(-n2ccc(=O)[nH]c2=O)cc1-c1ccoc1
result: 6.00 to 7.00
//
compound: COc1c(-c2ccc3c(c2)CCC3C(C)(C)NS(C)(=O)=O)cc(-n2ccc(=O)[nH]c2=O)cc1C(C)(C)C (centres unmarked)
result: 6.00 to 7.00
//
compound: COc1c(-c2ccc3c(C)coc3c2)cc(-n2ccc(=O)[nH]c2=O)cc1C(C)(C)C
result: 6.00 to 7.00
//
compound: COc1c(/C=C/c2ccc(NS(C)(=O)=O)cc2)cc(-n2ccc(=O)[nH]c2=O)cc1-c1cccs1
result: 6.00 to 7.00
//
compound: COc1c(-c2ccc3c(c2)CCC3O)cc(-n2ccc(=O)[nH]c2=O)cc1C(C)(C)C (centres unmarked)
result: 6.00 to 7.00
//
compound: COc1c(-c2ccc3c(c2)/C(=N/NS(C)(=O)=O)CC3)cc(-n2ccc(=O)[nH]c2=O)cc1-c1ccco1
result: 7.00 to 8.00
//
compound: COc1c(-c2ccc(NS(C)(=O)=O)cc2)cc(-n2ccc(=O)[nH]c2=O)cc1C(C)(C)C
result: < 6.00
//
compound: COc1c(/C=C(/F)c2ccc(NS(C)(=O)=O)cc2)cc(N2CCC(=O)NC2=O)cc1C(C)(C)C
result: 7.00 to 8.00
//
compound: COc1cc(NS(C)(=O)=O)ccc1C#Cc1cc(N2CCC(=O)NC2=O)cc(C(C)(C)C)c1OC
result: 7.00 to 8.00
//
compound: COc1c(C(=O)Nc2ccc(N(C(C)=O)S(C)(=O)=O)cc2)cc(N2CCC(=O)NC2=O)cc1C(C)(C)C
result: 6.00 to 7.00
//
compound: COc1c(-c2ccoc2)cc(-n2ccc(=O)[nH]c2=O)cc1-c1ccc2cc(NS(C)(=O)=O)ccc2c1
result: 6.00 to 7.00
//
compound: COc1c(/C=C/c2ccc(NS(C)(=O)=O)cc2CN2CCCC2)cc(-n2ccc(=O)[nH]c2=O)cc1C(C)(C)C
result: 6.00 to 7.00
//
compound: COc1c(/C=C/c2ccc(NS(C)(=O)=O)cc2C(=O)N2CCCC2)cc(-n2ccc(=O)[nH]c2=O)cc1C(C)(C)C
result: 7.00 to 8.00
//
compound: COc1c(C2CC2c2ccc(NS(C)(=O)=O)cc2)cc(N2CCC(=O)NC2=O)cc1C(C)(C)C (centres unmarked)
result: 6.00 to 7.00
//
compound: COc1c(-c2ccc(/C=N/NS(C)(=O)=O)c(F)c2F)cc(N2CCC(=O)NC2=O)cc1C(C)(C)C
result: 6.00 to 7.00
//
compound: COc1c(Br)cc(-n2ccc(=O)[nH]c2=O)cc1-c1ccc2cc(NS(C)(=O)=O)ccc2c1
result: 6.00 to 7.00
//
compound: COc1c(C(=O)Nc2ccc(OS(C)(=O)=O)cc2)cc(N2CCC(=O)NC2=O)cc1C(C)(C)C
result: < 6.00
//
compound: COc1c(C(=O)Nc2cc(CN(C(=O)OC(C)(C)C)S(C)(=O)=O)cs2)cc(N2CCC(=O)NC2=O)cc1C(C)(C)C
result: 6.00 to 7.00
//
compound: COc1c(/C=C/c2ccc(NS(C)(=O)=O)cc2CN2CC(O)C2)cc(-n2ccc(=O)[nH]c2=O)cc1C(C)(C)C
result: 6.00 to 7.00
//
compound: COc1c(/C=C/c2ccc(NS(C)(=O)=O)cc2C(=O)N(C)C2CCS(=O)(=O)C2)cc(-n2ccc(=O)[nH]c2=O)cc1C(C)(C)C (centres unmarked)
result: 7.00 to 8.00
//
compound: COc1cc(NS(C)(=O)=O)ccc1C(=O)Nc1cc(N2CCC(=O)NC2=O)cc(C(C)(C)C)c1OC
result: 6.00 to 7.00
//
compound: COc1c(/C=C/c2ccc(F)cc2)cc(N2CCC(=O)NC2=O)cc1C(C)(C)C
result: 6.00 to 7.00

----------
- testedTarget: HCV polymerase 1A (Δ21 NS5B, H77) (Hepatitis C virus genotype 1a, UniProt P27958)
- Construct: 20 to 50 nM Δ21 NS5B
- Sequence (P27958 2421-2990, stated change not applied): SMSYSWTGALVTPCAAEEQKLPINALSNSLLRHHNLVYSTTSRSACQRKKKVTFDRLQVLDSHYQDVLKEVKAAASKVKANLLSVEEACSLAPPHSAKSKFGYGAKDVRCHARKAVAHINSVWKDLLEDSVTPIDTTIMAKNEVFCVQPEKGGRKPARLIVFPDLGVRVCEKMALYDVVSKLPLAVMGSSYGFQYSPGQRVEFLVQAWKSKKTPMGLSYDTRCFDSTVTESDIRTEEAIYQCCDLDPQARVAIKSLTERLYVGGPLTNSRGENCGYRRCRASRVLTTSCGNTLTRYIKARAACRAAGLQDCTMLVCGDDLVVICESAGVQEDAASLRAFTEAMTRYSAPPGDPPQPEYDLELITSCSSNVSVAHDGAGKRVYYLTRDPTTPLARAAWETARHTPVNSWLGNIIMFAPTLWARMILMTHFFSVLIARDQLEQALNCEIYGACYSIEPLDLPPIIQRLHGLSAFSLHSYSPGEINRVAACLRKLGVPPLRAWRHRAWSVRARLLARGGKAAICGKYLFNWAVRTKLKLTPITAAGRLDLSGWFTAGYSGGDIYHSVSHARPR
- measurementProtocol: biochemical
- conditionsUsed: IC50 1a
pIC50: −log10 of the molar value.
// reported pIC50 for each item listed

compound: CS(=O)(=O)Nc1ccc(NC(=O)c2cc(N3CCC(=O)NC3=O)ccc2O)cc1
pIC50: < 6.00
--
compound: COc1c(C#Cc2ccc(NS(C)(=O)=O)cc2)cc(N2CCC(=O)NC2=O)cc1C(C)(C)C
pIC50: > 8.00
--
compound: COc1c(-c2ccc3c(CN(C)S(C)(=O)=O)csc3c2)cc(-n2ccc(=O)[nH]c2=O)cc1C(C)(C)C
pIC50: 7.00 to 8.00
--
compound: CC(C)(C)c1cc(N2CCC(=O)NC2=O)cc(C(=O)Nc2ccccc2S(C)(=O)=O)c1O
pIC50: < 6.00
--
compound: COc1c(C#Cc2ccc(NS(C)(=O)=O)cc2)cc(N2CCC(=O)NC2=O)cc1C1CC1
pIC50: 6.00 to 7.00
--
compound: CCCC(=O)OCN(c1ccc(NC(=O)c2cc(N3CCC(=O)NC3=O)cc(C(C)(C)C)c2OC)cc1)S(C)(=O)=O
pIC50: < 6.00
--
compound: COc1c(-c2ccc(/C=N/NS(C)(=O)=O)cc2)cc(N2CCC(=O)NC2=O)cc1C(C)(C)C
pIC50: > 8.00
--
compound: COc1c(C#Cc2cccc(NS(C)(=O)=O)c2)cc(N2CCC(=O)NC2=O)cc1C(C)(C)C
pIC50: 7.00 to 8.00
--
compound: CC(C)(C)c1cc(N2CCC(=O)NC2=O)cc(CNc2ccc(NS(C)(=O)=O)cc2)c1O
pIC50: < 6.00
--
compound: COCCS(=O)(=O)Nc1ccc(NC(=O)c2cc(N3CCC(=O)NC3=O)cc(C(C)(C)C)c2O)cc1
pIC50: 7.00 to 8.00
--
compound: CC(C)(C)OC(=O)NC1CCN(Cc2cc(N3CCC(=O)NC3=O)cc(C(C)(C)C)c2O)CC1
pIC50: < 6.00
--
compound: COc1c(C#Cc2ccc(NS(C)(=O)=O)cn2)cc(N2CCC(=O)NC2=O)cc1C(C)(C)C
pIC50: > 8.00
--
compound: CC(C)(C)c1cc(N2CCC(=O)NC2=O)cc(C(=O)Nc2cc(CNS(C)(=O)=O)cs2)c1O
pIC50: 7.00 to 8.00
--
compound: CCOC(=O)C1CCCN(Cc2cc(N3CCC(=O)NC3=O)cc(C(C)(C)C)c2O)C1 (stereo not shown)
pIC50: < 6.00
--
compound: COC(=O)NN=C1CCc2cc(-c3cc(-n4ccc(=O)[nH]c4=O)cc(C(C)(C)C)c3OC)ccc21
pIC50: 7.00 to 8.00
--
compound: COc1c(-c2cc(F)c(/C=N/NS(C)(=O)=O)c(F)c2)cc(N2CCC(=O)NC2=O)cc1C(C)(C)C
pIC50: 6.00 to 7.00
